# system: T1, Human CD3eg linker (human)
# T1 construct: Single chain: CD3 epsilon and gamma subunits joined by a 29-mer linker, Flag-tag at the C-terminus; also called recombinant human CD3
# T1 chain: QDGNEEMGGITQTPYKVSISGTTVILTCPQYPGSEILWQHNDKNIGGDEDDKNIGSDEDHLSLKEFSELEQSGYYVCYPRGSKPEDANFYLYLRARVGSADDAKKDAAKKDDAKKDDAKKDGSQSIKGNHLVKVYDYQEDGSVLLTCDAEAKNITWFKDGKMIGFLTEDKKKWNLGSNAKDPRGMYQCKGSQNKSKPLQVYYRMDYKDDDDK
# assay summary: SPR Biacore T200, 25 C, Ab captured on anti-human Fc, antigen as analyte;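 further: Anti-Fc amine-coupled to a CM4 chip, recombinant human CD3 flowed over in 20 mM ACES buffer pH 7.4 with 150 mM NaCl and 0.05% Tween 20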
metric name: Kd (nM)
Expressed in nM, but write only the number.

Reference set, count: 3
# binder, Kd, nM
rows = [
    ("H1610L0939 (antibody, V domains shown, Dual-Ig, IgG; also called H1610L939; dBBDu183H1610/dBBDu072L0939) VH: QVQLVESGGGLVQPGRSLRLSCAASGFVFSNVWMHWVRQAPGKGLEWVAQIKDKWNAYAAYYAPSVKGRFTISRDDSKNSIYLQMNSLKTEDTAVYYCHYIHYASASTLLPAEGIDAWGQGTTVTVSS VL: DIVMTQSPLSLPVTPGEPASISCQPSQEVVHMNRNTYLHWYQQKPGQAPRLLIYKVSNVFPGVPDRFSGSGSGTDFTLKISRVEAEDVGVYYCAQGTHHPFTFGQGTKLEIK", 50.7),
    ("H2591L0581 (antibody, V domains shown, Dual-Ig, IgG; also called H2591L581; dBBDu183H2591/dBBDu072L0581) VH: QVQLVESGGGLVQPGRSLRLSCAASGFKFSNVWFHWVRQAPGKGLEWVAQIKDYYNAYAGYYHPSVKGRFTISRDDSKNSIYLQMNSLKTEDTAVYYCHYVHYAAASTLLPAEGVDAWGQGTTVTVSS VL: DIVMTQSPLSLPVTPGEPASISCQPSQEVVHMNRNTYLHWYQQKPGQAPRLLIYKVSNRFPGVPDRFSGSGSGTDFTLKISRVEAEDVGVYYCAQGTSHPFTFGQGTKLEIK", 525),
    ("H1649L0581 (antibody, V domains shown, Dual-Ig, IgG; also called dBBDu183H1649/dBBDu072L0581) VH: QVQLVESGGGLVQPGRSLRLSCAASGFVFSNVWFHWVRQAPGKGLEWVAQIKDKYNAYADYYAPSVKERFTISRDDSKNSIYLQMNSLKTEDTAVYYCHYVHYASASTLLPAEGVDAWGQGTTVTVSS VL: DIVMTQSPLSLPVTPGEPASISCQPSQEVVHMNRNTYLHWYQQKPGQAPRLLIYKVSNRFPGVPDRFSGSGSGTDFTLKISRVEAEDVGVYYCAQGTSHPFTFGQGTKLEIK", 449),
]

Qu. Data request, read-out Kd, for H1610L0581 (antibody, V domains shown, Dual-Ig, IgG; also called H1610L581; dBBDu183H1610/dBBDu072L0581) VH: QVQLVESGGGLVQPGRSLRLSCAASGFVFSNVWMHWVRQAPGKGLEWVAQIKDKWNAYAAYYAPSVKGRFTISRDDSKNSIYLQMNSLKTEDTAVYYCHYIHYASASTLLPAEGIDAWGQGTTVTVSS VL: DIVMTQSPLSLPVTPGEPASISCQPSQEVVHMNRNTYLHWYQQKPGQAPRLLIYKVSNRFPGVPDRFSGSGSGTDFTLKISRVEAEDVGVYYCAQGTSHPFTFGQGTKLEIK
Ans. 20.9

Qu. Data request, read-out Kd, for H1643L0581 (antibody, V domains shown, Dual-Ig, IgG; also called H1643L581; dBBDu183H1643/dBBDu072L0581) VH: QVQLVESGGGLVQPGRSLRLSCAASGFKFSNVWFHWVRQAPGKGLEWVAQIKDYYNAYAAYYAPSVKGRFTISRDDSKNSIYLQMNSLKTEDTAVYYCHYVHYASASTLLPAEGVDAWGQGTTVTVSS VL: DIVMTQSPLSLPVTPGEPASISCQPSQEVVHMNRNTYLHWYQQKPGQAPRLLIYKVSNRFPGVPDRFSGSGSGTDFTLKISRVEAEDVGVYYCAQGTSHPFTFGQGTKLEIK
Ans. 265

Qu. Data request, read-out Kd, for H1673L0943 (antibody, V domains shown, Dual-Ig, IgG; also called dBBDu183H1673/dBBDu072L0943) VH: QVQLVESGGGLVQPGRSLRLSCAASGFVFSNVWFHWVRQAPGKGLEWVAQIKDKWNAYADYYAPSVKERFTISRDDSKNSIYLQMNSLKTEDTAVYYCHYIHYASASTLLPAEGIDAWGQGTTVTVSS VL: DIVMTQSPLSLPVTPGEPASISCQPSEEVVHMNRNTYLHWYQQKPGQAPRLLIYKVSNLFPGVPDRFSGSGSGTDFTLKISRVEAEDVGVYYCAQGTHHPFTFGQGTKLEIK
Ans. 21
